B1: Transitional endoplasmic reticulum ATPase, residues 26 to 106; numbered along this chain, P55072 (parent)
chain: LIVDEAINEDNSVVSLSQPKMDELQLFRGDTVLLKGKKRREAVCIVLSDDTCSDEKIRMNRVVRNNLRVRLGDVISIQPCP

variants of: B1; test: abundance fitness (aPCA) (normalised: wild type 0, dead -1); higher = more abundant; growth selection in yeast, the domain comes from the species named; settings: Homo sapiens
OBSERVATION TYPE: abundance fitness

[in] Which abundance fitness is listed for `R68W` ?
[out] -0.169

[in] Also need `I2P` , thanks.
[out] -0.891

[in] Also need `R40E` , thanks.
[out] -0.051

[in] Also need `D22C` , thanks.
[out] -0.083

[in] Also need `S53Q` , thanks.
[out] 0.033

[in] Also need `Q25H` , thanks.
[out] -0.168

[in] Also need `V62I` , thanks.
[out] 0.011

[in] Also need `L71Q` , thanks.
[out] -0.028

[in] Also need `K37T` , thanks.
[out] -0.072

[in] Also need `V69I` , thanks.
[out] -0.022

[in] Also need `R61H` , thanks.
[out] -0.157

[in] Also need `S48C` , thanks.
[out] 0.07

[in] Also need `V14H` , thanks.
[out] -0.956

[in] Also need `I7C` , thanks.
[out] -0.021

[in] Also need `I45C` , thanks.
[out] 0.008

[in] Also need `R68H` , thanks.
[out] -0.009

[in] Also need `S76I` , thanks.
[out] -0.173

[in] Also need `V74R` , thanks.
[out] 0.036

[in] Also need `D22N` , thanks.
[out] -0.036

[in] Also need `R70P` , thanks.
[out] -0.327

[in] Also need `D30F` , thanks.
[out] -0.638

[in] Also need `F27N` , thanks.
[out] -0.022

[in] Also need `S17F` , thanks.
[out] -0.698

[in] Also need `R39A` , thanks.
[out] -0.001

[in] Also need `D49W` , thanks.
[out] -0.923

[in] Also need `V62F` , thanks.
[out] -0.023

[in] Also need `R70Q` , thanks.
[out] -0.157

[in] Also need `T31I` , thanks.
[out] -0.235

[in] Also need `E23V` , thanks.
[out] -0.142

[in] Also need `V14F` , thanks.
[out] -1.06

[in] Also need `I2G` , thanks.
[out] -0.357

[in] Also need `P79D` , thanks.
[out] -0.383

[in] Also need `A6T` , thanks.
[out] 0.046

[in] Also need `L33E` , thanks.
[out] -0.19

[in] Also need `V63F` , thanks.
[out] -0.061

[in] Also need `N11H` , thanks.
[out] 0.103

[in] Also need `E5D` , thanks.
[out] 0.003

[in] Also need `I45P` , thanks.
[out] -0.157

[in] Also need `K38H` , thanks.
[out] -0.05

[in] Also need `D54N` , thanks.
[out] -0.072

[in] Also need `A6H` , thanks.
[out] 0.001

[in] Also need `L24H` , thanks.
[out] -0.366

[in] Also need `K37S` , thanks.
[out] 0.03

[in] Also need `L26P` , thanks.
[out] -0.859

[in] Also need `V3E` , thanks.
[out] -0.809

[in] Also need `L34E` , thanks.
[out] -1.01
